Biological target: T1, full-length Sudan GP (GPFL) (Sudan virus (SUDV), UniProt Q7T9D9 33-650)
T1 construct: also called Sudan GPFL; GP(S)FL
T1 sequence: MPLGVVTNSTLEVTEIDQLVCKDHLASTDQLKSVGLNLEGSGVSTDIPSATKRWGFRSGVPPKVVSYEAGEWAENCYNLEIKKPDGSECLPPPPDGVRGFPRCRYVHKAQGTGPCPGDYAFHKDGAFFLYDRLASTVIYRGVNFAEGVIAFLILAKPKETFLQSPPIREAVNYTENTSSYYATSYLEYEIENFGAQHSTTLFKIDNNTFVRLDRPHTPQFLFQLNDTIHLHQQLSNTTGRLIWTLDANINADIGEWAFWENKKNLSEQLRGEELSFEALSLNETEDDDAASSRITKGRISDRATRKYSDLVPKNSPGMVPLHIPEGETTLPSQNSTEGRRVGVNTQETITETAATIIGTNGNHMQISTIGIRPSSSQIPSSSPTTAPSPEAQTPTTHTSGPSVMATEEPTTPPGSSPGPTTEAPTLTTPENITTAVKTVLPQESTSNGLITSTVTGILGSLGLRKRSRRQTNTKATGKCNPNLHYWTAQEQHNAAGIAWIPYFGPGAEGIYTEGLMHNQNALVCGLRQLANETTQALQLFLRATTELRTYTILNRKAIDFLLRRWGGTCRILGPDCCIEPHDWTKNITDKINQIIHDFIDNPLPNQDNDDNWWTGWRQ
Test: BLI, Fab, pH 5.3
reported_property: pKd
FYI, pKd means -log10 of a concentration in mol per litre.

(Q) For the binder shown here, Fab generated from 573S (Fab, V domains shown, also called 573S Fab) VH: EVQLVESGGGLVKPGGSLRLSCAASGFTFSSYTMNWVRQAPGKGLEWVSCIRSSSSDKYYADSVKGRFTISRDNTKNSLYLQMNSLRADDTAVYYCARDLGGANNRYYFDYGMDVWGQGTTVTVSS VL: EIVMTQSPATLSVSPGGRATLSCRASQSVYTNLAWYQQKPGQAPRLLIYDASTRATGIPARFSGSGSGTEFTLTISSLQCEDFAVYYCQHYNNWPLYTFGQGTKLEIK , give the reported pKd.
(A) 8.03

(Q) // same read-out, input: Fab generated from 241S (Fab, V domains shown) VH: QVQLVQSGSELKKPGASVKVSCKASGYTFTSYTVNWVRQAPGQGLEWMGWINTNTGNPTYAQGFTGRFVFSSDTSVSTAYLQISDLKAEDTAMYYCARHVAYDLWSGHTVTFDHWGQGTLVTVSS VL: QSALTQPPSASGSPGQSVTISCTGTSSDVGAYNYVSWYQQHPGKAPKLIIYEVTKRPSGVPDRFSGSKSGNTASLTVSGLQAEDEADYYCSSKAGGKTYVFGTGTKVTVL
(A) 8.20

(Q) // same read-out, input: Fab generated from 294S (Fab, V domains shown, also called 294S Fab) VH: QVQLQESGPGLVKPSQTLSLTCTVSGGSISSGGYHWSWIRQHPGKGLEWIGNIYYNGRTYYNPSLKSRVTISVDTSENEFSLKLSSVTAADTAVYYCARDRRRPRIGHDYGMDVWGQGTKVIVSS VL: DIQMTQSPSSLSASVGDRVTISCRASQSISNFLNWYQQKPGQAPKLLIYTASNLQSGVPSRFSGSGSGTDFTLTISSLQPEDFATYYCQQIYNTGMYSFGQGTKLEIK
(A) 8.66

Data credit: patent US20260209316A1
